Source: PubChem BioAssay (NCATS)

system: CP215; assay: qHTS profiling for inhibitors of Plasmodium falciparum proliferation (AID 504749); further: nearly all actives have a fitted effect of over 60% in size; conditions: P. falciparum in erythrocytes, SYBR Green DNA, 72 h; series mostly up to 28.7 µM
Inconclusive results are not listed. Calls of active or inactive are those of the source. The call rests on the fitted dose curve; in most records, active means well fitted inhibition curve with a large enough effect; inconclusive means small, poorly fitted or top-dose-only effect; inactive means flat fitted curve, though single readings scatter. Peptide text beside a SMILES is read from it.
Please state which outcome applies, choosing from active, inactive

Assay result, entry CC(C)C(NC(=O)C(CC(=O)O)NC(=O)C(CCCCN)NC(=O)C(N)CCCN=C(N)N)C(=O)NC(Cc1ccc(O)cc1)C(=O)O (centres undefined) (H-RKDVY-OH; configuration not given here) — outcome?
inactive

Which result was noted for this molecule in the test: CC(C)C[C@H](NC(=O)[C@@H](Cc1c[nH]c2ccccc12)NC(=O)[C@@H](Cc1ccc(O)cc1)NC(=O)[C@@H](CO)NC(=O)[C@@H](Cc1c[nH]c2ccccc12)NC(=O)C(Cc1cnc[nH]1)NC(=O)C1CCC(=O)N1)C(=O)N[C@@H](CCCN=C(N)N)C(=O)N1CCC[C@@H]1C(=O)NCC(N)=O (some centres undefined)
inactive

Dear colleague, could you share the recorded outcome for CC(=O)OCC(=O)[C@@]1(O)CCC2C3CCC4=CC(=O)CC[C@]4(C)C3=CC[C@@]21C (some centres undefined) when you have a moment?
inactive

Record lookup: outcome of this test for CC(=O)OCC1=C(C(=O)O)N2C(=O)C(NC(=O)Cc3ccccc3)C2SC1 (centres undefined) ?
inactive

Please indicate how the test categorized CC(C)CC(NC(=O)C(COC(C)(C)C)NC(=O)C(Cc1ccc(O)cc1)NC(=O)C(CO)NC(=O)C(Cc1c[nH]c2ccccc12)NC(=O)C(Cc1cnc[nH]1)NC(=O)C1CCC(=O)N1)C(=O)NC(CCCN=C(N)N)C(=O)N1CCCC1C(=O)NNC(N)=O (centres undefined) .
inactive

What did this assay record as the result for CCC(Oc1ccccc1)C(=O)NC1C(=O)N2C1SC(C)(C)C2C(=O)O (centres undefined) ?
inactive

Please indicate how the test categorized CC(N)C(=O)NCC(=O)NC1CSSCC(C(=O)O)NC(=O)C(CO)NC(=O)C(C(C)O)NC(=O)C(Cc2ccccc2)NC(=O)C(C(C)O)NC(=O)C(CCCCN)NC(=O)C(Cc2c[nH]c3ccccc23)NC(=O)C(Cc2ccccc2)NC(=O)C(Cc2ccccc2)NC(=O)C(CC(N)=O)NC(=O)C(CCCCN)NC1=O (centres undefined) .
inactive

Recorded call for C=CC1=C(C(=O)O)N2C(=O)[C@@H](NC(=O)C(N=O)c3csc(N)n3)[C@H]2SC1 (some centres undefined) ?
inactive

How was O=C(OCC1OC(OC(=O)c2cc(O)c(O)c(OC(=O)c3cc(O)c(O)c(O)c3)c2)[C@@H](OC(=O)c2cc(O)c(O)c(OC(=O)c3cc(O)c(O)c(O)c3)c2)C(OC(=O)c2cc(O)c(O)c(OC(=O)c3cc(O)c(O)c(O)c3)c2)C1OC(=O)c1cc(O)c(O)c(OC(=O)c2cc(O)c(O)c(O)c2)c1)c1cc(O)c(O)c(OC(=O)c2cc(O)c(O)c(O)c2)c1 (some centres undefined) classified in this test?
active

* * *

Target: Cytochrome P450 3A4 (Homo sapiens) (UniProt P08684)
Sequence (P08684 whole entry, looked up): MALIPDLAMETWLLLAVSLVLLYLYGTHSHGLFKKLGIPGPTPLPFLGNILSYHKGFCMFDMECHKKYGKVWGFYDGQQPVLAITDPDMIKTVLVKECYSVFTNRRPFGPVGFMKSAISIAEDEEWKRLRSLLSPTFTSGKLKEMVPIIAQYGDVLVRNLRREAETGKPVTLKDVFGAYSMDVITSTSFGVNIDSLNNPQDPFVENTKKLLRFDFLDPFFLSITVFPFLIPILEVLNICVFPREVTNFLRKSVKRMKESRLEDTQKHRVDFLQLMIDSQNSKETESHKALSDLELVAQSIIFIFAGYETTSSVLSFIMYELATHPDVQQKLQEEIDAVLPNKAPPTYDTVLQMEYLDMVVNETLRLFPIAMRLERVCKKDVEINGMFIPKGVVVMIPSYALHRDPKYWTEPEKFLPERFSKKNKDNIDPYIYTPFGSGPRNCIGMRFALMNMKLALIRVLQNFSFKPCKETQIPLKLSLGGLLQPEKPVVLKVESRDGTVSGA
Assay: qHTS Assay for Activators of Cytochrome P450 3A4 (AID 885); further: nearly all actives have a fitted effect of over 65% in size
Details: recombinant CYP3A4, Luciferin-PPXE luminescence, 60 min; series mostly up to 57.1 µM
Method: NIH Molecular Libraries Screening Centers Network [MLSCN] NIH Chemical Genomics Center [NCGC] The P450 gene superfamily is involved in the metabolism and clearance of xenobiotics. […] The luciferin is then measured by luminescence after the addition of a luciferase detection reagent. […] Inhibitors and some substrates limit the production of luciferin, and decrease measured luminescence; activators increase the production of luciferin and luminescence. […]
Activity calls are given as the source filed them. The call rests on the fitted dose curve; in most records, active means well fitted activation curve with a large enough effect; inconclusive means small, poorly fitted or top-dose-only effect; inactive means no such curve, though single readings can be large or run the other way.
measured-attribute: activity change, positive = activation

Solved entries (count: 5):
compound: CNC(=O)C1(C)C=CC2(CCCCC2)N1C(=O)OC (stereo not given)
activity change, positive = activation: inactive

compound: CCCNC(=O)OC[C@@H]1O[C@H](CCO/N=C(\C)CCN2CCc3nc(-c4ccccc4)c(-c4ccccc4)cc3C2)C=C[C@@H]1Oc1ccc(OC)cc1
activity change, positive = activation: -74.2% [at 11.4 µM] (inactive)

compound: O=C(N/N=C1/C[C@@H](O)[C@@H](O)[C@@H]2[C@@H]3C(=O)N(Cc4ccc5c(c4)OCO5)C(=O)[C@H]3CC[C@@H]12)OCc1ccccc1
activity change, positive = activation: -74.6% [at 11.4 µM] (inactive)

compound: COC(=O)c1ccc(C(NC(=O)OCc2ccccc2)/C(=C/[C@@H](C)C(=O)N(C)C)c2cccnc2)cc1 (stereo not given in full)
activity change, positive = activation: inactive

compound: COC(=O)N1CCc2cc(OC)c(OC)cc2C1Cc1ccc(OC)cc1 (stereo not given)
activity change, positive = activation: -32.2% [at 11.4 µM] (inactive)

Hello, please tell me recorded activity change, positive = activation for this one: CCc1cc2c(nc1CC)CCN(CC/C(C)=N/OCC[C@@H]1C=C[C@H](OC(C)=O)[C@H](COC(C)=O)O1)C2
-32.1% [at 11.4 µM] (inactive)

// Input: COC(=O)C1=C(C)N(Cc2ccccc2)[C@]23O[C@](C(=O)OC)(C(=O)N2C1c1ccccc1)C(c1ccccc1)C3C(=O)c1ccccc1 (stereo not given in full) . Output its activity change, positive = activation only.
-32.3% [at 11.4 µM] (inactive)

Supply measured activity change, positive = activation of COC(=O)CC1[C@@]2(C)C[C@]34OC5(C)OC6(C7CC(=O)OC(c8ccoc8)[C@]7(C)CCC6(O5)[C@]13C)C(OC(C)=O)[C@]4(OC(C)=O)C2OC(C)=O (stereo not given in full) in your reply.
inactive

Output activity change, positive = activation of COC(=O)[C@@H]1C[C@@]2(O)[C@H](O)[C@H](O)[C@H](O)C[C@H]2N1CC(c1ccccc1)c1ccccc1
inactive

Name the recorded activity change, positive = activation of the compound listed here: C=C(N(C)C)[C@]1(C)C[C@H]1[C@H](NC(=O)CNC(=O)OCc1ccccc1)c1ccccc1
inactive
